Quick record of IC50 values for full-length human LSD1 (Homo sapiens (Human), UniProt O60341).
measuredAttribute: IC50

{"structureSmilesString": "Cn1c(N2CCC(N)CC2)nc(-c2ccncc2)c(-c2ccc3c(ccn3C)c2)c1=O", "result": "100 to 1000 nM"}
{"structureSmilesString": "Cn1cc2cc(-c3c(-c4ccc(C#N)c(F)c4)nc(N4CCCNCC4)n(C)c3=O)ccc2n1", "result": "< 100 nM"}
{"structureSmilesString": "CNc1ccc(-c2c(-c3ccc(C#N)c(F)c3)nc(N3CCC(N)CC3)n(C)c2=O)cc1F", "result": "< 100 nM"}
{"structureSmilesString": "Cn1c(N2CCC(N)CC2)nc(-c2ccc(C#N)c(F)c2)c(-c2ccc3cn[nH]c3c2)c1=O", "result": "< 100 nM"}
{"structureSmilesString": "Cc1ccc(-c2c(-c3ccc(C#N)c(F)c3)nc(N3CCC(N)CC3)n(C)c2=O)cn1", "result": "< 100 nM"}
{"structureSmilesString": "Cn1c(N2CCC(N)CC2)nc(-c2ccc(F)cc2)c(-c2ccc3c(ccn3C)c2)c1=O", "result": "100 to 1000 nM"}
{"structureSmilesString": "COc1ccc(-c2c(-c3ccc(C#N)cc3)nc(N3CCC(N)CC3)n(C)c2=O)cn1", "result": "< 100 nM"}
